# Measured target: T1, biotinylated goat anti-human kappa light chain
# T1 construct: Positive control of the ELISA
# Protocol: ELISA; positive control; also: test concentration or dose not given here
Readings of optical density for the listed binders
Measure: optical density (OD)

1) 374_E02 (antibody, V domains shown, VH/VL only) VH: EVQLLESGGGLVQPGGSLRLSCAASGFTFSSYSMNWVRQAPGKGLEWVSGINYNGGYTSYADSVKGRFTISRDNSKNTLYLQMNSLRAEDTAVYYCARSANWHDTALDYWGQGTLVTVSS VL: DIQMTQSPSSLSASVGDRVTITCRASQSILSYLNWYQQKPGKAPKLLIYAATSLASGVPSRFSGSGSGTDFTLTISSLQPEDFATYYCQQSYDLPLTFGGGTKVEIK | 3.18
2) 374_C05 (antibody, V domains shown, VH/VL only) VH: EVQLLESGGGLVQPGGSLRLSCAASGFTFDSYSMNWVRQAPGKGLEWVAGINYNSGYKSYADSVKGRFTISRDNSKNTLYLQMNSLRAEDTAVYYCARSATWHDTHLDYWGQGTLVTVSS VL: DIQMTQSPSSLSASVGDRVTITCRASQSIIRYLNWYQQKPGKAPKLVIYAATSRASGVPSRFSGSGSGTDFTLTISSLQPEDFATYYCQQSYDNPLTFGGGTKVEIK | 3.18
3) 373_B03 (antibody, V domains shown, VH/VL only) VH: EVQLLESGGGLVQPGGSLRLSCAASGFTFSSYSMNWVRQAPGKGLEWVAGINYNSGYKSYADSVKGRFTISRDNSKNTLYLQMNSLRAEDTAVYYCARSATWHDTHLDYWGQGTLVTVSS VL: DIQMTQSPSSLSASVGDRVTITCRASQSILTYLNWYQQKPGKAPKLVIYAATSLASGVPSRFSGSGSGTDFTLTISSLQPEDFATYYCQQSYDNPLTFGGGTKVEIK | 3.16
